- Tested target: Ataxin-2 (Homo sapiens) (UniProt Q99700)
- Sequence (Q99700 whole entry): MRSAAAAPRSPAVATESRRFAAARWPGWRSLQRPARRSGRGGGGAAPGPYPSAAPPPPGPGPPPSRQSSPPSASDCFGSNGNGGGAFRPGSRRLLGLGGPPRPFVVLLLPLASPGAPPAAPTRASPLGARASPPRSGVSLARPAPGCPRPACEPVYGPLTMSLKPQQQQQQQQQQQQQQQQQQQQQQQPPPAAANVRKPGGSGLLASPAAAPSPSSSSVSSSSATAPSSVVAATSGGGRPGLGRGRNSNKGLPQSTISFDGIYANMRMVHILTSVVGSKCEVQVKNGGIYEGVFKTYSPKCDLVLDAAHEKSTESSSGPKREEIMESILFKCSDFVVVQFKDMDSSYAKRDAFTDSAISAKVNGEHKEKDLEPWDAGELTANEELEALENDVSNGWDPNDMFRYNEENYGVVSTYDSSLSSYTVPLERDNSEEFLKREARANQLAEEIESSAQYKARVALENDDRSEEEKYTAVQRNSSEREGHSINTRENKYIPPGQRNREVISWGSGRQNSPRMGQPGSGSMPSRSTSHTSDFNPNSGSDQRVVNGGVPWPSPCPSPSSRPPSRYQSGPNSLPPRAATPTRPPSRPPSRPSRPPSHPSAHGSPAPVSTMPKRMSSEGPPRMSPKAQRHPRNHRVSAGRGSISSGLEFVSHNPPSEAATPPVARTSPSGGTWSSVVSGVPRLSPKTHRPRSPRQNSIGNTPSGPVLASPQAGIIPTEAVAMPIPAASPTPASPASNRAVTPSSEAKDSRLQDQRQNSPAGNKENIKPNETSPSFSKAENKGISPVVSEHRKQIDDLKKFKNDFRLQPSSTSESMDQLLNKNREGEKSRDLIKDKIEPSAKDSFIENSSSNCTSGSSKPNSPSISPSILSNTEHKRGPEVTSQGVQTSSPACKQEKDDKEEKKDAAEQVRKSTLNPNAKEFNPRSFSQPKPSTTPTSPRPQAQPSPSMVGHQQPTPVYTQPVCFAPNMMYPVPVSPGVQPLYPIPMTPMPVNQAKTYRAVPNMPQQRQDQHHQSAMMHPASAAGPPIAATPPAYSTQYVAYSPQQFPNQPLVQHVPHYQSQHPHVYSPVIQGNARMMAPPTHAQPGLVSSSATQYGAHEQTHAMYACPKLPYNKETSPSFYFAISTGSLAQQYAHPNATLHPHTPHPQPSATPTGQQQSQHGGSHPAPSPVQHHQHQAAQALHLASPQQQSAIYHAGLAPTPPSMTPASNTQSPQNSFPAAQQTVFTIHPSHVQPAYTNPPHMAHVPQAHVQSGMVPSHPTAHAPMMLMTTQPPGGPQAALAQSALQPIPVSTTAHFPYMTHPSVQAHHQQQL
- Test details: qHTS for Inhibitors of ATXN expression.
- Type: functional
Screen size: about 400,000 compounds; about 2,100 (0.53%) were called active. Roughly 14% stayed inconclusive and do not appear here. For the sample, actives were picked, then their nearest neighbours and some compounds at random.
Measured attribute: Potency

Look over these answered cases.
Cc1c(C)n(Cc2ccccc2)c2ccc(C(=O)O)cc12; inactive
O=c1c2ccccc2[nH]c2ccccc12; inactive
O=C(/C=C/c1ccc([N+](=O)[O-])o1)NNC(=O)c1ccc(F)cc1; 7.08 µM (active)
Cc1ccc2nc(NCC(N)=O)nc(-c3ccccc3)c2c1; inactive
O=C(CC(=O)c1c(F)cccc1Cl)c1ccccc1O; inactive
CSCCC(NC(=O)COc1ccccc1)C(=O)N(C)Cc1c(F)cccc1Cl (centres undefined); inactive
Cc1cccc(Cn2c(CN3CCC(C(=O)NCc4cccnc4)CC3)cc3ccccc32)c1; 22.4 µM (active)
Cc1ccc(CNC(=O)c2cc3c(=O)n4ccccc4nc3n(CC3CCCO3)c2=N)cc1 (centres undefined); inactive

Fill in: Ataxin-2 (Homo sapiens) (UniProt Q99700) Potency for Cc1ccccc1Nc1cccc2nonc12 = inactive

I looked up COc1ccc(OC)c(C(=O)NC2CCCc3c2cnn3-c2cc(C)cc(C)c2)c1 (centres undefined) and its Potency for Ataxin-2 (Homo sapiens) (UniProt Q99700) was inactive

Test item CC(C)c1cc(N2CCOCC2)n2ncc(-c3ccccc3)c2n1 ; Ataxin-2 (Homo sapiens) (UniProt Q99700); reported Potency was inactive

---

- Tested target: Ataxin-2 (Homo sapiens)
- Test details: qHTS for Inhibitors of ATXN expression.
- Assay type: functional
Out of some 400,000 compounds screened, about 2,100 (0.53%) were called active. About 14% were inconclusive and are not listed. No rule for the calls is given here. This is one part of a sample in which actives are shown more often than they occur.
Permitted responses: 1 = active, 0 = inactive

Solved cases (8 shown):
COc1ccc2c(c1)c(=Cc1ccc(N(C)C)cc1)c1cc(-c3ccccc3)[n+](C)n12; 1
CN(C(=O)COC(=O)c1nnc(O)c2ccccc12)c1ccccc1; 0
COc1cccc(C(c2nnnn2C2CCCC2)N2CCN(C/C=C/c3ccccc3)CC2)c1OC (configuration not stated); 1
CCSc1nnc(-c2sc3nnc(-c4ccccc4)c(-c4ccccc4)c3c2N)o1; 0
S=C(Nc1ccc2nc(-c3ccccn3)c(-c3ccccn3)nc2c1)N1CCOCC1; 0
O=[N+]([O-])c1ccc2c(c1)c1ccccc1n2CCO; 0
CCc1noc(C)c1C(=O)N1CCN(c2cccc(Cl)c2)CC1; 0
CN(C)c1ccc(/C=c2\c3cc([N+](=O)[O-])ccc3n3c2cc(-c2ccccc2)[n+]3C)cc1; 1

IN: I'd appreciate the recorded outcome for C=CCn1c(=N)c(C(=O)NCCCOC)cc2c(=O)n3ccccc3nc21 from this test.
OUT: 0

IN: Fill in: this test's call for O=C(CCl)N1N=C(c2ccco2)CC1c1cccs1 (configuration not stated) is ___
OUT: 1

IN: Write down the call the test reported for this compound. Item: Cc1c(-c2ccccc2)c(=O)oc2cc(O)ccc12
OUT: 0

IN: Please state the recorded outcome for this compound: CCC/C=C/c1ccc(CN2C(C(C)C)C(=O)N(Cc3cn(CCC4OCCO4)nn3)CCS2(=O)=O)cc1 (configuration not stated)
OUT: 1

IN: Tell me the assay call for O=C(c1ccco1)N1CCN(c2c(O)nc3ccc(Cl)cc3c2-c2ccccc2)CC1 please.
OUT: 1

IN: Check the results log: what was the call for CCC/C=C/c1ccc(CN2C(C(C)C)C(=O)N(Cc3cn(CCC4OCCCO4)nn3)CCS2(=O)=O)cc1 (configuration not stated) ?
OUT: 1

The measurements presented in this section are drawn from ChEMBL document CHEMBL1201862.
